test: MRP1 drug-resistance reversers in H69AR cells – cell-based, doxorubicin co-treatment, pilot screen (AID 601); settings: H69AR cells + 2 uM doxorubicin, CellTiter-Glo, 72 h; measured here: viability with 2 uM doxorubicin; at 10 µM; stronger effect = lower value
Quick reference: viability of the listed items.

{"compound": "C(=N\\c1c(-c2ccccc2)nc2n1CCS2)/c1ccccc1", "viability (%)": 89.5}
{"compound": "CN1CCN(Cc2nc3c(c(=O)n(C)c(=O)n3C)n2Cc2ccccc2Cl)CC1", "viability (%)": 79.8}
{"compound": "CC(C)n1c(CN2CCN(C)CC2)nc2c1c(=O)n(C)c(=O)n2C", "viability (%)": 89.2}
{"compound": "O=C1c2ccccc2C(Nc2ccc(F)cc2F)N1CCN1CCOCC1 (stereo not drawn)", "viability (%)": 81.9}
{"compound": "COc1cccc(-c2cc(C(=O)N3CCCCCC3)no2)c1", "viability (%)": 77.7}
{"compound": "CCCSc1nnc2nc3c(nn12)c1ccccc1n3C", "viability (%)": 86.9}
{"compound": "C=CCSc1nnc(-c2cccnc2)o1", "viability (%)": 87.8}
{"compound": "CC1CCc2nn(CC(=O)NCCN3CCOCC3)cc2C1 (stereo not drawn)", "viability (%)": 97.7}
{"compound": "COC(=O)c1ccccc1NC1c2ccccc2C(=O)N1c1cccnc1 (stereo not drawn)", "viability (%)": 85.4}
{"compound": "COc1ccc(C(c2sc3nc(C)nn3c2O)N2CCCCC2)cc1 (stereo not drawn)", "viability (%)": 95.5}
{"compound": "COc1cc2c(cc1OC)CN(C(=O)CSc1nc3[nH]ncc3c(=O)n1-c1ccccc1)CC2", "viability (%)": 80.1}
{"compound": "COc1ccccc1NC(=O)N(Cc1ccccc1)c1ccccn1", "viability (%)": 91.2}
{"compound": "CCOC(=O)Cn1nc(-c2ccc(Cl)cc2)cc1N", "viability (%)": 83.1}
{"compound": "O=C(c1cnc2n(c1=O)CCS2)N(C1CCCCC1)C1CCCCC1", "viability (%)": 97.4}
{"compound": "CCOC(=O)C(CC)(CCC(=O)O)c1csc(N)n1 (stereo not drawn)", "viability (%)": 94.2}
{"compound": "COc1ccccc1NC(=O)N(C1CCCC1)C1CCN(C(C)=O)CC1", "viability (%)": 87.6}
{"compound": "COc1ccc(-n2ncc3c(N4CCN(c5cccc(C)c5C)CC4)ncnc32)cc1", "viability (%)": 21.7}
{"compound": "CCOC(=O)c1sc2nc(NC(=O)C(C)(C)C)sc2c1C", "viability (%)": 67.5}
{"compound": "CCN(CC)S(=O)(=O)c1ccc2c(c1)nc(SCn1nnc3ccccc3c1=O)n2CC", "viability (%)": 74.6}
{"compound": "COc1ccc(C)cc1NC(=O)CNC(=O)Cn1ccc2ccccc2c1=O", "viability (%)": 85.9}
{"compound": "Cc1cccc(-n2ncc3c(N(CCO)CCO)ncnc32)c1", "viability (%)": 78.7}
{"compound": "O=C(CSc1nc(-c2ccco2)cc(C(F)(F)F)n1)NCCCn1ccnc1", "viability (%)": 98.9}
{"compound": "CCOc1ccc(Cn2nnc(C(=O)Nc3cc(C)cc(C)c3)c2N)cc1", "viability (%)": 78.3}
